# reported abundance fitness; entries follow
B1: Probable E3 ubiquitin-protein ligase MID2, residues 191 to 235; numbered along this chain, Q9UJV3 (parent)
chain: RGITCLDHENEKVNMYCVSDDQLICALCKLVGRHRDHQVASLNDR

Variants of: B1
test: abundance fitness (aPCA) (normalised: wild type 0, dead -1); higher = more abundant; growth selection in yeast, the domain comes from the species named
applied-conditions: Homo sapiens

Sample records with abundance fitness:
Asked: For `Q22W` , what is its reported abundance fitness?
Given back: -0.515

Asked: One more variant: `H8M`
Given back: -0.588

Asked: Also `E11Y` ?
Given back: 0.129

Asked: Next variant up: `H8V`
Given back: -0.809

Asked: Try `H37L` next.
Given back: -0.584

Asked: Follow-up item: `Q22Y`
Given back: -0.264

Next:
Asked: For `D21K` , what is its reported abundance fitness?
Given back: 0.011

Asked: # repeat for `D7T`
Given back: -0.223

Asked: # repeat for `D20G`
Given back: -0.589

Asked: Same lookup for `A26K` , please.
Given back: -0.051

Asked: Next variant: `H8G`
Given back: -0.582

Asked: Please answer likewise for `I24C`
Given back: -0.436

Asked: Moving on to the next variant: `L27Q`
Given back: 0.263

Asked: Consider next the variant `T4L` in the same way.
Given back: -0.376

Asked: // next record `H37T`
Given back: -0.295

Asked: Try `L23S` next.
Given back: -0.009

Asked: What do we get for `D20E` ?
Given back: -0.096

Where do the numbers come from? From the Human Domainome abundance scans (Beltran et al. 2025).
